Every entry's value here was drawn from ChEMBL document CHEMBL1201862.

system_tested: Sentrin-specific protease 8 (Homo sapiens)
Sequence (Q96LD8 whole entry): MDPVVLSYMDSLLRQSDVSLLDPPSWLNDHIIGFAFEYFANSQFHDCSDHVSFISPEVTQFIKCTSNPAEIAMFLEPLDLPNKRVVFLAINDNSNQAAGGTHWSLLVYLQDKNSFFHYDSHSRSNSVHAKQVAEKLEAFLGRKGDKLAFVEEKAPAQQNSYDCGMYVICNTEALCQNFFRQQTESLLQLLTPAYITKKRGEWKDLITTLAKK
Type: functional
Calls of active or inactive are those of the source.
assay_endpoint: IC50

Solved cases below.
N#CC1(CCCN2CCCCC2)c2ccccc2CCc2ccccc21 :: 35.4 µM (active)
COc1cccc(-c2cc(C(=O)N3CCc4ccccc4C3)no2)c1 :: 46 µM (active)
CN(C)c1ccc(NC(=O)c2ccc(Cn3cc([N+](=O)[O-])cn3)cc2)cc1 :: 23.2 µM (active)

// molecule CCCCOc1cc(NCc2ccccc2)c2ncn(C(C)C)c2c1 , assay Sentrin-specific protease 8 (Homo sapiens), IC50 value: 12.9 µM (active)

Noted IC50 for COc1ccc(-c2cc(=O)n(-c3ccc([N+](=O)[O-])cc3)[nH]2)cc1 , tested on Sentrin-specific protease 8 (Homo sapiens): 17.6 µM (active)

IC50 value, target or system Sentrin-specific protease 8 (Homo sapiens), for O=C(Nc1ccc(O)cc1)C1CC=CCC1 (stereo unspecified) : 25.1 µM (active)

* * *

Catalogue of EC50 readings, one per entry.
system_tested: Streptokinase A (Streptococcus pyogenes serotype M1, UniProt P10520)
Sequence (P10520 whole entry): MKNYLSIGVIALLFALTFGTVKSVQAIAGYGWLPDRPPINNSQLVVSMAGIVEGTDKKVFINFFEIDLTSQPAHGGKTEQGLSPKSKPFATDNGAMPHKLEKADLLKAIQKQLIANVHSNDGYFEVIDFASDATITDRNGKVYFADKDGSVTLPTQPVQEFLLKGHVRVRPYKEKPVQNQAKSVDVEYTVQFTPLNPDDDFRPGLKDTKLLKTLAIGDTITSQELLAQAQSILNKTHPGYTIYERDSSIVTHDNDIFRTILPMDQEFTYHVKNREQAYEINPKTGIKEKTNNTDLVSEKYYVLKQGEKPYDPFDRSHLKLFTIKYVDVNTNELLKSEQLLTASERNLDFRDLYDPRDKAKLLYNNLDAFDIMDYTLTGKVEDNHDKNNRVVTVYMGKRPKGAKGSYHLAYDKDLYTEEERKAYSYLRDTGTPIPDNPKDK
measurement_protocol: S. pyogenes streptokinase expression inhibitors, potency, dose response, plasminogen activation absorbance, OD405 (AID 1914);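 further: secreted streptokinase activity via plasminogen activation per viability signal from cell pellet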
Type: functional, Streptococcus pyogenes M1 GAS

Answered cases to consult:
COc1ccc(OCCn2c(NC(=O)c3ccco3)nc3ccccc32)cc1 :: > 150 µM (not active)
Cc1ccc2cccc(NS(=O)(=O)c3ccccc3)c2n1 :: > 150 µM (not active)
CC(C)(C)c1ccc(C(=O)N/N=C/c2ccccn2)cc1 :: > 150 µM (not active)
O=C(COC(=O)c1ccccc1Br)Nc1nnc(-c2ccccc2)o1 :: > 150 µM (not active)
CC12CCC(C(=O)NNC(=O)c3ccccc3)(OC1=O)C2(C)C (stereo not given) :: > 150 µM (not active)

EC50 for CC(C)CC(=O)NC(=S)NNC(=O)c1ccc(NC(=O)C2CCCCC2)cc1 is > 150 µM (not active)
